- Tested on: Staphylococcus aureus
- Protocol notes: Antibacterial activity against Staphylococcus aureus ATCC 29213 measured after 16 to 20 hrs by microdilution method
- Format: functional
Observation type: MIC (µg/mL)
Give bare numbers, in µg/mL.

Solved cases (5 shown):
N#Cc1ccc(/C=C/c2nc3ccccc3c(=O)n2-c2cccc(CNC(=O)C(F)(F)F)c2)cc1 0.5
N#Cc1ccc(CCc2nc3ccccc3c(=O)n2-c2cccc(C(=O)O)c2)cc1 8
N#Cc1ccc(/C=C/c2nc3ccccc3c(=O)n2-c2cccc(C(=O)O)c2)cc1 2
N#Cc1ccc(/C=C/c2nc3ccccc3c(=O)n2-c2cc(C(=O)O)ccc2Cl)cc1 2
N#Cc1ccc(/C=C/c2nc3ccccc3c(=O)n2-c2ccccc2O)cc1 0.015

For each entry beneath this line, provide reported MIC.
1. N#Cc1ccc(/C=C/c2nc3ccccc3c(=O)n2-c2cccc(N=[N+]=[N-])c2)cc1
2. Cc1ccc(C(=O)O)cc1-n1c(/C=C/c2ccc(C#N)cc2)nc2ccccc2c1=O
3. N#Cc1ccc(/C=C/c2nc3ccccc3c(=O)n2-c2ccccc2C(=O)O)cc1

1: 16; 2: 2; 3: 32

For each entry beneath this line, provide reported MIC.
1. N#Cc1ccc(/C=C/c2nc3ccccc3c(=O)n2-c2cccc(C(N)=O)c2)cc1
2. N#Cc1ccc(/C=C/c2nc3ccccc3c(=O)n2-c2cccc(C(=O)O)c2)s1
3. N#Cc1ccc(/C=C/c2nc3ccccc3c(=O)n2-c2ccc(F)c(C(=O)O)c2)cc1

[2, 4, 16]

----------
- Protocol notes: Selectivity index, ratio of IC50 for human HeLa cells to MIC for clindamycin/erythromycin/spectinomycin-resistant mec-positive Staphylococcus aureus NRS70
- Type: toxicity
Label condition met when selectivity ratio < 200; otherwise condition not met.

N#Cc1ccc(/C=C/c2nc3ccccc3c(=O)n2-c2cccc(S(N)(=O)=O)c2)cc1 condition not met

Is selectivity ratio of N#Cc1ccc(/C=C/c2nc3ccccc3c(=O)n2-c2cccc(NC(=O)C(F)(F)F)c2)cc1 strictly below 200?
condition not met

Is selectivity ratio of N#Cc1ccc(/C=C/c2nc3ccccc3c(=O)n2-c2cc(C(=O)O)ccc2F)cc1 strictly below 200?
condition met

Is selectivity ratio of O=C(O)c1cccc(-n2c(/C=C/c3ccc(Br)s3)nc3ccccc3c2=O)c1 strictly below 200?
condition not met

Is selectivity ratio of C#Cc1ccc(/C=C/c2nc3ccccc3c(=O)n2-c2cccc(S(N)(=O)=O)c2)cc1 strictly below 200?
condition not met

Is selectivity ratio of N#Cc1ccc(/C=C/c2nc3ccccc3c(=O)n2-c2cccc(CNC(=O)C(F)(F)F)c2)cc1 strictly below 200?
condition met

Is selectivity ratio of O=C(O)c1cccc(-n2c(CCc3ccc(F)cc3)nc3ccccc3c2=O)c1 strictly below 200?
condition met

Is selectivity ratio of CC(=O)NS(=O)(=O)c1cccc(-n2c(/C=C/c3ccc(C#N)cc3)nc3ccccc3c2=O)c1 strictly below 200?
condition met

Is selectivity ratio of N#Cc1ccc(/C=C/c2nc3ccccc3c(=O)n2-c2cccc(C(=O)O)c2)s1 strictly below 200?
condition met

Is selectivity ratio of O=C(O)c1cccc(-n2c(/C=C/c3cc(Cl)cs3)nc3ccccc3c2=O)c1 strictly below 200?
condition met

Is selectivity ratio of CS(=O)(=O)Nc1cccc(-n2c(NCc3ccc(C#N)cc3)nc3ccccc3c2=O)c1 strictly below 200?
condition not met

Data provenance is ChEMBL document CHEMBL4342526.
